All figures here come from patent US8658604B2.

Tested Target: CathepsinG, from human neutrophils (Homo sapiens, UniProt P08311)
Sequence (P08311 21-244): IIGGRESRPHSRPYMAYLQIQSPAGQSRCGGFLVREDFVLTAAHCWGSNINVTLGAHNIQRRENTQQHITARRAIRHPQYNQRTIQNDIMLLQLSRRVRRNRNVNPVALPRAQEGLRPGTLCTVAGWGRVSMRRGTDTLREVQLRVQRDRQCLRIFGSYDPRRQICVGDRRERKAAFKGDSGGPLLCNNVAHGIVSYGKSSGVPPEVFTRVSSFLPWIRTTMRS
Assay Procedure: Enzymatic assay, cathepsin G
Measurement Conditions: at 100 μM
Where a SMILES comes first, the peptide text is derived from it.
Measured Quantity: Cathepsin G at 100 μM %
# include the unit after the value

Molecule	Cathepsin G at 100 μM %
CCCCCCCC[C@@H]1NC(=O)[C@@H]2CCCN2C(=O)[C@H]2CCCN2C(=O)[C@H](Cc2ccc(O)cc2)NC(=O)[C@H](CCCCN)NC(=O)[C@H](CCC(N)=O)NC(=O)[C@@H]2CCCN2C(=O)[C@@H]2CCCN2C(=O)[C@H]([C@@H](C)CC)NC(=O)[C@H](CO)NC(=O)[C@H](C)NC(=O)[C@H]([C@@H](C)O)NC(=O)[C@H](CCC(=O)O)NC1=O [Ex. 156] (HELM PEPTIDE1{[CCCCCCCC[C@H](N[*:1])C(=O)[*:2]].E.T.A.S.I.P.P.Q.K.Y.[dP].P}$PEPTIDE1,PEPTIDE1,1:R1-13:R2$$$V2.0)	46 at 100%
CC[C@H](C)[C@@H]1NC(=O)[C@H](CO)NC(=O)[C@H](C)NC(=O)[C@H]([C@@H](C)O)NC(=O)[C@@H]2CSSC[C@H](NC(=O)[C@H](CCC(N)=O)NC(=O)[C@@H]3CCCN3C(=O)[C@@H]3CCCN3C1=O)C(=O)N[C@@H](Cc1ccccc1)C(=O)N1CCC[C@@H]1C(=O)N1CCC[C@H]1C(=O)N[C@@H](CCc1ccccc1)C(=O)N2 [Ex. 146] (HELM PEPTIDE1{[O=C([C@H](CCc1ccccc1)N[*:1])[*:2]].C.T.A.S.I.P.P.Q.C.F.[dP].P}$PEPTIDE1,PEPTIDE1,2:R3-10:R3|PEPTIDE1,PEPTIDE1,1:R1-13:R2$$$V2.0)	1 at 100%
CCCC[C@@H]1NC(=O)[C@@H]2CCCN2C(=O)[C@H]2CCCN2C(=O)[C@H](Cc2ccc(O)cc2)NC(=O)[C@@H]2CSSC[C@H](NC1=O)C(=O)N[C@@H]([C@@H](C)O)C(=O)N[C@@H](C)C(=O)N[C@@H](CO)C(=O)N[C@@H](CC1CCCCC1)C(=O)N1CCC[C@H]1C(=O)N1CCC[C@H]1C(=O)N[C@@H](CCC(N)=O)C(=O)N2 [Ex. 141] (HELM PEPTIDE1{[Nle].C.T.A.S.[Cha].P.P.Q.C.Y.[dP].P}$PEPTIDE1,PEPTIDE1,2:R3-10:R3|PEPTIDE1,PEPTIDE1,1:R1-13:R2$$$V2.0)	63.4 at 100%

The reported CathepsinG, from human neutrophils (Homo sapiens, UniProt P08311) Cathepsin G at 100 μM % of C[C@@H]1NC(=O)[C@H]([C@@H](C)O)NC(=O)[C@@H]2CSSC[C@H](NC(=O)[C@H](CCC(N)=O)NC(=O)[C@@H]3CCCN3C(=O)[C@@H]3CCCN3C(=O)[C@H](CC3CCCCC3)NC(=O)[C@H](CO)NC1=O)C(=O)N[C@@H](CCC(N)=O)C(=O)N1CCC[C@@H]1C(=O)N1CCC[C@H]1C(=O)N[C@@H](CCc1ccccc1)C(=O)N2 [Ex. 158] (HELM PEPTIDE1{[O=C([C@H](CCc1ccccc1)N[*:1])[*:2]].C.T.A.S.[Cha].P.P.Q.C.Q.[dP].P}$PEPTIDE1,PEPTIDE1,2:R3-10:R3|PEPTIDE1,PEPTIDE1,1:R1-13:R2$$$V2.0) is 55 at 100%
